# target_desc: MAP4K3 (UniProt Q8IVH8)
# Sequence (whole entry): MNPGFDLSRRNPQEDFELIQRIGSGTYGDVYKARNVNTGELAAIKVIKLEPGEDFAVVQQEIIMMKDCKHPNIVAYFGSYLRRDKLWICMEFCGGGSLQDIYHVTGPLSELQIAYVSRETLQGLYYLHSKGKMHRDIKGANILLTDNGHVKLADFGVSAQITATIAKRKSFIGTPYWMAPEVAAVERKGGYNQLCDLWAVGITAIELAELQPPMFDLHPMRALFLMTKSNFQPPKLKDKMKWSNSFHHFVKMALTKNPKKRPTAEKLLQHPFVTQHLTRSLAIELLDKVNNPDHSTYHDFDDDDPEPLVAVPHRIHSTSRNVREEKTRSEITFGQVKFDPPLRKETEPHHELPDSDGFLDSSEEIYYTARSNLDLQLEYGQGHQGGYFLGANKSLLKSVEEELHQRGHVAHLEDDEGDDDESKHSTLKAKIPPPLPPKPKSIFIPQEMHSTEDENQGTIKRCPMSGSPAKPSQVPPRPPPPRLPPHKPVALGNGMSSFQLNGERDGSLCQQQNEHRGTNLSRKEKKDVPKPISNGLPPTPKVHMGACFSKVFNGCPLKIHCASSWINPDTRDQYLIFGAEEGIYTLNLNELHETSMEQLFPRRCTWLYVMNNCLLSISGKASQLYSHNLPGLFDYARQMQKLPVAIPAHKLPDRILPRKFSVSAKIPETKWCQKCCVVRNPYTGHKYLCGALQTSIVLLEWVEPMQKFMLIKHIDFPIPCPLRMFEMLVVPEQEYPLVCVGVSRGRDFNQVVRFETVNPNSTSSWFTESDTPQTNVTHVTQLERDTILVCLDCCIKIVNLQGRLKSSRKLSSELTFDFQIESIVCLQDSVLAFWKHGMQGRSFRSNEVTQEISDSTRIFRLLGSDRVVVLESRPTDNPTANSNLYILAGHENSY
# measurement_protocol: EC50 for competition of Kinobead binding
# run_conditions: lysate: 5-cell-line mix (COLO-205, K562, SK-N-BE(2), MV-4-11, OVCAR-8)
property: pEC50
Scale: negative log10 of molar concentration, which is what pEC50 denotes.

Prompt: Tell me the measured pEC50 of COc1ccc2c(C(=O)Nc3ccc(NC(=O)c4nn(C5CCN(C(=O)CC(C)(C)C#N)CC5)c5ccc(F)cc45)cc3Cl)cnn2c1 , please.
Completion: 4.84

###

# target_desc: BCR (UniProt P11274)
# Sequence (whole entry): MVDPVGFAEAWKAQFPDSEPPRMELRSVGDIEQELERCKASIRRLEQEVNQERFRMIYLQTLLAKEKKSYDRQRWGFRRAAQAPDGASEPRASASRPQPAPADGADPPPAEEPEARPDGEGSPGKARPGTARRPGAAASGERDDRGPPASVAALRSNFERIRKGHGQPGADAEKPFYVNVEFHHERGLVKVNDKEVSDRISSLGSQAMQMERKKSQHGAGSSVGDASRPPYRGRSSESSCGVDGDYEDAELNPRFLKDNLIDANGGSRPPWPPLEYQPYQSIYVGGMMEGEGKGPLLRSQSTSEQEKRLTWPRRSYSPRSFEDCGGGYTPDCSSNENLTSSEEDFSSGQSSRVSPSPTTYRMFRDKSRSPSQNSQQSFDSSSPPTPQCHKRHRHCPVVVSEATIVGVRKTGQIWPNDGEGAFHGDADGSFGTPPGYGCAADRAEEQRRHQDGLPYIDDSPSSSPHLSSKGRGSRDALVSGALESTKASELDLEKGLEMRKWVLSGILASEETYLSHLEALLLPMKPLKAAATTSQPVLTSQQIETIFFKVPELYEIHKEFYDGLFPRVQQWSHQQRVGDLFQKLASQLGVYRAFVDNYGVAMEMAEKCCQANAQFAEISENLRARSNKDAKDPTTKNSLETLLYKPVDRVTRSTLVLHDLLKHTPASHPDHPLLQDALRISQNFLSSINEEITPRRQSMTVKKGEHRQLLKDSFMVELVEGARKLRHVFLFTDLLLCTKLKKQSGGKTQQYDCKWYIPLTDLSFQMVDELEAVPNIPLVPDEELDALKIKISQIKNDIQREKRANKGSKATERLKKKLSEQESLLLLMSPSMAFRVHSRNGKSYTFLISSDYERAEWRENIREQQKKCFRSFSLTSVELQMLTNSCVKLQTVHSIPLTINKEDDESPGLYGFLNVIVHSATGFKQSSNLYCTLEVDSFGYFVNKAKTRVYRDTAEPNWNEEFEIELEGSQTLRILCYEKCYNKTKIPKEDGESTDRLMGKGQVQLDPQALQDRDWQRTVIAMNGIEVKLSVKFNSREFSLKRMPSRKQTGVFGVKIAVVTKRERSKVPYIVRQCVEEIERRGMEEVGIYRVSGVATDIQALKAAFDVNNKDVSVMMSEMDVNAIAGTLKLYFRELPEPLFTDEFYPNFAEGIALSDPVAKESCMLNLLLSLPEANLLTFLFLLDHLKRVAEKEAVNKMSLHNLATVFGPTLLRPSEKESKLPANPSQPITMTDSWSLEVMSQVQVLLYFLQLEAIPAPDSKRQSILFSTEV
# measurement_protocol: EC50 for competition of Kinobead binding
# run_conditions: lysate: 5-cell-line mix (COLO-205, K562, SK-N-BE(2), MV-4-11, OVCAR-8)
property: EC50
Quick note: number first, unit second.

Prompt: Tell me the measured EC50 of COc1ccc2c(C(=O)Nc3ccc(NC(=O)c4nn(C5CCN(C(=O)CC(C)(C)C#N)CC5)c5ccc(F)cc45)cc3Cl)cnn2c1 , please.
Completion: 0.79 µM

###

# target_desc: UNC119 (UniProt Q13432)
# measurement_protocol: EC50 for competition of Kinobead binding
# run_conditions: lysate: 5-cell-line mix (COLO-205, K562, SK-N-BE(2), MV-4-11, OVCAR-8)
property: pEC50
Scale: negative log10 of molar concentration, which is what pEC50 denotes.

Prompt: API: value(readout=pEC50, system=UNC119 (UniProt Q13432)) for record COc1ccc2c(C(=O)Nc3ccc(NC(=O)c4nn(C5CCN(C(=O)CC(C)(C)C#N)CC5)c5ccc(F)cc45)cc3Cl)cnn2c1 [Src Inhibitor 3]
Completion: 6.04

###

# target_desc: FRK (UniProt P42685)
# Sequence (P42685 whole entry): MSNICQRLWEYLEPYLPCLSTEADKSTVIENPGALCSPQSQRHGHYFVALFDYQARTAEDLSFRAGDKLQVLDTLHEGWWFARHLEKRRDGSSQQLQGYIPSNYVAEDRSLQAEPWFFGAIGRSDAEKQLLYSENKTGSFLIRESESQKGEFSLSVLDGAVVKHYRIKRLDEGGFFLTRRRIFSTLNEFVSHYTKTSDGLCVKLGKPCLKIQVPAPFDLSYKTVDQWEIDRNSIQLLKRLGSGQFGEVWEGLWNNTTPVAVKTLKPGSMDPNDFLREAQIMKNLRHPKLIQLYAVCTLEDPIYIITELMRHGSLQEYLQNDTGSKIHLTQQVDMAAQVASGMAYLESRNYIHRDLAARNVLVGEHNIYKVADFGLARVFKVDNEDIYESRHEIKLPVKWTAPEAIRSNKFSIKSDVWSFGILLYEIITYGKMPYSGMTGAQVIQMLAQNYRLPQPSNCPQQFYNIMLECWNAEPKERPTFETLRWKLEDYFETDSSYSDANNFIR
# measurement_protocol: EC50 for competition of Kinobead binding
# run_conditions: lysate: 5-cell-line mix (COLO-205, K562, SK-N-BE(2), MV-4-11, OVCAR-8)
property: EC50 (µM)
API: value field is a number in µM; no unit string.

Prompt: Tell me the measured EC50 of COc1ccc2c(C(=O)Nc3ccc(NC(=O)c4nn(C5CCN(C(=O)CC(C)(C)C#N)CC5)c5ccc(F)cc45)cc3Cl)cnn2c1 [Src Inhibitor 3] , please.
Completion: 17.6
